- test_summary: Antiproliferative activity against human Bel7402 cells assessed as inhibition of cell proliferation incubated for 48 hrs by CCK8 assay
- Assay type: functional, cell-based
- assay_context: Bel-7402, 48 h
measure: IC50 (µM)
One number for each entry, in µM.

>  <smiles_input>
O=C(/C=C/c1ccc(Cl)cc1)c1ccc(OCc2cn([C@H]3CC(=O)N4C[C@@H]5CCCN6CCC[C@@H]([C@H]56)[C@H]4C3)nn2)cc1

>  <IC50 [µM]>
21.2

$$$$

Quick check: IC50 of `O=C(/C=C/c1ccc(Cl)c(Cl)c1)c1ccc(OCc2cn([C@H]3CC(=O)N4C[C@@H]5CCCN6CCC[C@@H]([C@H]56)[C@H]4C3)nn2)cc1` ?
11.9
